Molecular target: human A3 receptor (Homo sapiens, UniProt P0DMS8)
Construct: expressed in transfected cells; host or cells: HEK 293
Sequence (P0DMS8 1-318): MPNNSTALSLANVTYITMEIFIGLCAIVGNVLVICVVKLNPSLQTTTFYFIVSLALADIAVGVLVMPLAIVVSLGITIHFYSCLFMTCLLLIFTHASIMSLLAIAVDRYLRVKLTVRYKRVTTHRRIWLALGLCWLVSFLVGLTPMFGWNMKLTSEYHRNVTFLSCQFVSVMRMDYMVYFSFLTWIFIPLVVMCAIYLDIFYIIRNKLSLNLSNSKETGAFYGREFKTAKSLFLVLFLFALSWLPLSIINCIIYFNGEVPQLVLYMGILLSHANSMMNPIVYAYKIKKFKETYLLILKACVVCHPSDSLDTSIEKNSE
Assay: Radioligand binding, displacement of [125I]AB-MECA from human A3 receptor expressed in HEK 293 cells
Recorded Ki, one value per entry.

Worked cases, answers included:
CCCCC#Cc1nc(N)c2nc(NCC)n([C@@H]3O[C@H](CO)[C@@H](O)[C@H]3O)c2n1; 8.83 µM
CNc1nc2c(N)nc(I)nc2n1[C@@H]1O[C@H](CO)[C@@H](O)[C@H]1O; 7.31 µM

Consider the record given below.
Look up human A3 receptor (Homo sapiens, UniProt P0DMS8) data: Ki of CCCC/C=C/c1nc(N)c2nc(NC)n([C@@H]3O[C@H](CO)[C@@H](O)[C@H]3O)c2n1 [Compound 17, 2-((E)-1-Hexenyl)-8-methylaminoadenosine] , then report it.
13.4 µM

====

biological target: adenosine A1 receptor (Rattus norvegicus); assay: biochemical; conditions: read-out: % displacement at 10^-5 M, A1
Sequence (P25099 whole entry): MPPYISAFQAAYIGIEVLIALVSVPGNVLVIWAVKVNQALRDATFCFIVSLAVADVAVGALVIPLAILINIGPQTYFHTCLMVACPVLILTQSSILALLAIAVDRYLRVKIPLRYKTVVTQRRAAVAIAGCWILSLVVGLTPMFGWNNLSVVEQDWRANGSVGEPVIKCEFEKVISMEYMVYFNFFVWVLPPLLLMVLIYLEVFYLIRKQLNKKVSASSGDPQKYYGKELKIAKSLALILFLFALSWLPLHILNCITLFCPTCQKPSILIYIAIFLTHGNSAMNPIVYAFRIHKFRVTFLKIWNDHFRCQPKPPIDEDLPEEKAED
Recorded inhibition at 10 µM, one value per entry.
State just the number; it will be interpreted in %.

Worked cases, answers included:
CCCCC#Cc1nc(N)c2nc(NCCC)n([C@@H]3O[C@H](CO)[C@@H](O)[C@H]3O)c2n1 [Compound 14, 2-(1-Hexynyl)-8-propylaminoadenosine]; 47.6
CCCC/C=C/c1nc(N)c2ncn([C@@H]3O[C@H](CO)[C@@H](O)[C@H]3O)c2n1 [Compound 4, 2-((E)-1-hexenyl)adenosine]; 53.1

Consider the record given below.
Answer with the recorded inhibition at 10 µM of CNc1nc2c(N)nc(I)nc2n1[C@@H]1O[C@H](CO)[C@@H](O)[C@H]1O [Compound 7, 2-Iodo-8-methylaminoadenosine] only.
35.2

The measured values listed here are drawn from patent US7112574B2.
